FYI, the data here is from paper PMC5161541.

Listed here are molecules together with their documented IC50.
# Tested on: sites labeled by [125I]-E-IA-BF-PIPZE (σ1 receptors) (Mus musculus, UniProt O55242)
# Sequence (O55242 whole entry): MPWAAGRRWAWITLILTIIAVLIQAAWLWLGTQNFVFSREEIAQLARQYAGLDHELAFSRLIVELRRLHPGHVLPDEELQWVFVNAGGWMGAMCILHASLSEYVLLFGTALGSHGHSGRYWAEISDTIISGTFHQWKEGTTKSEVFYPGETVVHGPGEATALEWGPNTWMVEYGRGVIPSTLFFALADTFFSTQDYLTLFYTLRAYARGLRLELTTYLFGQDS
# Format: binding
# Experimental setup: 0.1 nM [125I]-E-IA-BF-PIPZE; 37 °C, 180 min; means ± SEM (n = 3 – 6)
Just the number please, in µM, no unit attached.

COc1cc2c(cc1OC)CN(CCCCNC(=O)c1cc(Br)cc(OC)c1OC)CC2 [Br-Mach, reference compound] :: 9.85

Query :: May I ask what IC50 has been recorded for CN1CCN(CCc2ccc(Cl)c(Cl)c2)CC1 ?
Result :: 0.0136

----------
Catalogue of pIC50 values
# Tested on: sites labeled by [125I]-E-IA-BF-PIPZE (σ1 receptors) (Mus musculus, UniProt O55242)
# Type: binding
Quick note: pIC50 values are minus log10 of concentrations in mol/L.

Query :: Need pIC50, item Cc1ccccc1NC(=N)Nc1ccccc1C
Result :: 6.68

Query :: Recorded pIC50 of I/C=C/CN1CCN(CCc2ccc3c(c2)CCO3)CC1 , please.
Result :: 8.77

----------
# Tested on: UniProtKB O55192
# Sequence (O55192 whole entry): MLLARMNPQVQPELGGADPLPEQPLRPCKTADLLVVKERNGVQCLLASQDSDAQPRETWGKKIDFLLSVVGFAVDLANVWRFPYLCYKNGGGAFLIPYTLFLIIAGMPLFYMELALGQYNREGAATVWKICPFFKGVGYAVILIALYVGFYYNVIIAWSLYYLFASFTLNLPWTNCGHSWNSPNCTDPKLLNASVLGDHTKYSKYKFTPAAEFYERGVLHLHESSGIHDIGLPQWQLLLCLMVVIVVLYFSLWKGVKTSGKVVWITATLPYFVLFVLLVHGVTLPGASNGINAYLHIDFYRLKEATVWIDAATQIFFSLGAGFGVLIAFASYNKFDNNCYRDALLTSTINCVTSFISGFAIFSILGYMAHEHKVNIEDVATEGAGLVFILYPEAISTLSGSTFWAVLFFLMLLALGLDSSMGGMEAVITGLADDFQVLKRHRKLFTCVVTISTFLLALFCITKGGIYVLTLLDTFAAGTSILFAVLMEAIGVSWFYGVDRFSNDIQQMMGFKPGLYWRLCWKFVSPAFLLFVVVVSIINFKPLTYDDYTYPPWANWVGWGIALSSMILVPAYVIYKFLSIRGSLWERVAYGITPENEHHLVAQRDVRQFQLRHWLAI
# Experimental protocol: Secondary site spot test, [3H]-Nisoxetine
Readout kind: IC50

Query :: Would you kindly share the measured IC50 for I/C=C/CN1CCN(CCc2ccc3c(c2)CCO3)CC1 ?
Result :: > 10 µM
